The origin of these recorded values is patent US8257698B2.

Test system: MGLL
ASSAY_OVERVIEW: Kinetic analysis: hydrolysis of 4-methyl coumarin butyrate (4MC-B) by MGLL constructs
Format: biochemical, human
CONDITION_LABEL: substrate 4MC-B; 4-5 nM MGLL, 20 mM Pipes pH 7, 150 mM NaCl, 37° C.; average of 2 or 4 separate assays
READOUT_NAME: Kcat

Entry mut-MGLL. 1-303, L167Q, L174Q: engineered form of human MGLL, cap mutations (protein) MVDHHHHHHENLYFQGMPEESSPRRTPQSIPYQDLPHLVNADGQYLFCRYWKPTGTPKALIFVSHGAGEHSGRYEELARMLMGLDLLVFAHDHVGHGQSEGERMVVSDFHVFVRDVLQHVDSMQKDYPGLPVFLLGHSMGGAIAILTAAERPGHFAGMVLISPLVLANPESATTFKVLAAKVQNLVLPNQSLGPIDSSVLSRNKTEVDIYNSDPLICRAGLKVCFGIQLLNAVSRVERALPKLTVPFLLLQGSADRLCDSKGAYLLMELAKSQDKTLKIYEGAYHVLHKELPEVTNSVFHEINMWVSQRTATAGTASPP ; Kcat = 1.17 s⁻¹
